MEASUREMENT_PROTOCOL: Solubility of compound in 0.1 M HCl assessed as equilibrium pH
Type: physicochemical
STUDY_CONDITIONS: buffer

[
  {
    "MOLECULE": "FC1CCN(CCOc2ccc(C3CCC4(CC3)OOC3(OO4)C4CC5CC(C4)CC3C5)cc2)CC1 (centres undefined)",
    "pH": 1.13
  },
  {
    "MOLECULE": "c1cc([C@H]2CCCC3(C2)OOC2(OO3)C3CC4CC(C3)CC2C4)ccc1CN1CCOCC1 (some centres undefined)",
    "pH": 1.13
  },
  {
    "MOLECULE": "c1cc([C@H]2CCCC3(C2)OOC2(OO3)C3CC4CC(C3)CC2C4)ccc1OCCN1CCOCC1 (some centres undefined)",
    "pH": 1.11
  },
  {
    "MOLECULE": "FC1CCN(CCOc2ccc([C@H]3CCCC4(C3)OOC3(OO4)C4CC5CC(C4)CC3C5)cc2)CC1 (some centres undefined)",
    "pH": 1.14
  },
  {
    "MOLECULE": "c1cc([C@@H]2CCCC3(C2)OOC2(OO3)C3CC4CC(C3)CC2C4)ccc1CN1CCOCC1 (some centres undefined)",
    "pH": 1.12
  },
  {
    "MOLECULE": "FC1CCN(Cc2ccc(C3CCC4(CC3)OOC3(OO4)C4CC5CC(C4)CC3C5)cc2)CC1 (centres undefined)",
    "pH": 1
  },
  {
    "MOLECULE": "c1cc(C2CCC3(CC2)OOC2(OO3)C3CC4CC(C3)CC2C4)ccc1CN1CCOCC1 (centres undefined)",
    "pH": 1
  },
  {
    "MOLECULE": "FC1CCN(Cc2ccc([C@H]3CCCC4(C3)OOC3(OO4)C4CC5CC(C4)CC3C5)cc2)CC1 (some centres undefined)",
    "pH": 1.14
  },
  {
    "MOLECULE": "FC1CCN(Cc2ccc([C@@H]3CCCC4(C3)OOC3(OO4)C4CC5CC(C4)CC3C5)cc2)CC1 (some centres undefined)",
    "pH": 1.12
  }
]

----------
MEASUREMENT_PROTOCOL: Intrinsic clearance in human liver microsome up to 30 mins by LC-MS analysis
Format: ADME
STUDY_CONDITIONS: liver microsomes, read-out: CLH
Each item that follows carries a reported microsomal CLint.

[
  {
    "COMPOUND": "c1cc([C@H]2CCCC3(C2)OOC2(OO3)C3CC4CC(C3)CC2C4)ccc1OCCN1CCOCC1 (some centres undefined)",
    "microsomal CLint": "22.1 µL/min/mg"
  },
  {
    "COMPOUND": "FC1CCN(CCOc2ccc(C3CCC4(CC3)OOC3(OO4)C4CC5CC(C4)CC3C5)cc2)CC1 (centres undefined)",
    "microsomal CLint": "23 µL/min/mg"
  },
  {
    "COMPOUND": "c1cc([C@@H]2CCCC3(C2)OOC2(OO3)C3CC4CC(C3)CC2C4)ccc1CN1CCOCC1 (some centres undefined)",
    "microsomal CLint": "27.1 µL/min/mg"
  },
  {
    "COMPOUND": "FC1CCN(Cc2ccc([C@@H]3CCCC4(C3)OOC3(OO4)C4CC5CC(C4)CC3C5)cc2)CC1 (some centres undefined)",
    "microsomal CLint": "35.9 µL/min/mg"
  },
  {
    "COMPOUND": "c1cc([C@@H]2CCCC3(C2)OOC2(OO3)C3CC4CC(C3)CC2C4)ccc1OCCN1CCOCC1 (some centres undefined)",
    "microsomal CLint": "22.2 µL/min/mg"
  },
  {
    "COMPOUND": "FC1CCN(CCOc2ccc([C@@H]3CCCC4(C3)OOC3(OO4)C4CC5CC(C4)CC3C5)cc2)CC1 (some centres undefined)",
    "microsomal CLint": "19.8 µL/min/mg"
  },
  {
    "COMPOUND": "FC1CCN(Cc2ccc([C@H]3CCCC4(C3)OOC3(OO4)C4CC5CC(C4)CC3C5)cc2)CC1 (some centres undefined)",
    "microsomal CLint": "26.7 µL/min/mg"
  },
  {
    "COMPOUND": "c1cc([C@H]2CCCC3(C2)OOC2(OO3)C3CC4CC(C3)CC2C4)ccc1CN1CCOCC1 (some centres undefined)",
    "microsomal CLint": "19.7 µL/min/mg"
  },
  {
    "COMPOUND": "FC1CCN(CCOc2ccc([C@H]3CCCC4(C3)OOC3(OO4)C4CC5CC(C4)CC3C5)cc2)CC1 (some centres undefined)",
    "microsomal CLint": "26.3 µL/min/mg"
  }
]
